# target.or.system: CDK9/cyclin K (Homo sapiens)
# Construct: purchased Invitrogen (ThermoFisher) PV4335
# assay: TR-FRET Lanthascreen Eu Kinase Binding assay
# run.parameters: difference between highest and lowest activity across concentration range; in %
Where a name gives a salt, the structure may show the parent alone.
Use condition met when the recorded Efficacy is no lower than -80; use condition not met when it is lower.

Below are worked cases with known answers.
compound	label.value
CC(C)n1nc(-c2ccc(NC(=O)Nc3cccc(C(F)(F)F)c3)cc2)c2c(N)ncnc21 [AD57 (hydrochloride)]	condition not met
CN1CCC(c2c(O)cc(O)c3c(=O)cc(-c4ccccc4Cl)oc23)C1CO (stereo not shown)	condition met
Nc1nc(Nc2ccc(S(N)(=O)=O)cc2)nn1C(=O)c1c(F)cccc1F	condition not met

Query: Reported Efficacy reaches at least -80 for CC(=O)c1cnc2ccc(-c3cc(Cl)c(O)c(Cl)c3)nc2c1N[C@H]1CC[C@H](CN(C)C)CC1 ?
Result: condition not met

Query: Reported Efficacy reaches at least -80 for CN[C@@H]1C[C@H]2O[C@@](C)([C@@H]1OC)n1c3ccccc3c3c4c(c5c6ccccc6n2c5c31)C(=O)N[C@H]4O ?
Result: condition not met

Query: Reported Efficacy reaches at least -80 for CC(C)c1c2cc(-c3ccnc(N[C@H]4CC[C@H](NC5CCOCC5)CC4)n3)ccc2nn1C ?
Result: condition met

Query: Reported Efficacy reaches at least -80 for O=C1NCCSc2c1sc1ccc(O)cc21 ?
Result: condition not met

Query: Reported Efficacy reaches at least -80 for COc1ccc2c(c1)/C(=C/c1cnc[nH]1)C(=O)N2 ?
Result: condition not met

Query: Reported Efficacy reaches at least -80 for COc1ccccc1-c1c[nH]c2ncc(-c3cncc(C(=O)N(C)C)c3)cc12 ?
Result: condition not met

###

# target.or.system: CDK9/cyclin K (Homo sapiens, UniProt P50750)
# Construct: purchased Invitrogen (ThermoFisher) PV4335
# Sequence (P50750 whole entry): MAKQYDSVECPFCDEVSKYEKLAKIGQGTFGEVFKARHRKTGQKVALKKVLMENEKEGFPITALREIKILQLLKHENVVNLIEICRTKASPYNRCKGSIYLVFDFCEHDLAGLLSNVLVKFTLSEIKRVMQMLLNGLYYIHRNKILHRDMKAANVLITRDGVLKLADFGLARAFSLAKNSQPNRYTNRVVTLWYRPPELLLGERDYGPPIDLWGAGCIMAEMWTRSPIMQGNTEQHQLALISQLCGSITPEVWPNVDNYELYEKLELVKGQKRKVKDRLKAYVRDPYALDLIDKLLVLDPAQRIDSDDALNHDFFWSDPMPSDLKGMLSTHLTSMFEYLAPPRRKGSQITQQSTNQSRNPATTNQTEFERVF
# Sequence (O75909 whole entry partner): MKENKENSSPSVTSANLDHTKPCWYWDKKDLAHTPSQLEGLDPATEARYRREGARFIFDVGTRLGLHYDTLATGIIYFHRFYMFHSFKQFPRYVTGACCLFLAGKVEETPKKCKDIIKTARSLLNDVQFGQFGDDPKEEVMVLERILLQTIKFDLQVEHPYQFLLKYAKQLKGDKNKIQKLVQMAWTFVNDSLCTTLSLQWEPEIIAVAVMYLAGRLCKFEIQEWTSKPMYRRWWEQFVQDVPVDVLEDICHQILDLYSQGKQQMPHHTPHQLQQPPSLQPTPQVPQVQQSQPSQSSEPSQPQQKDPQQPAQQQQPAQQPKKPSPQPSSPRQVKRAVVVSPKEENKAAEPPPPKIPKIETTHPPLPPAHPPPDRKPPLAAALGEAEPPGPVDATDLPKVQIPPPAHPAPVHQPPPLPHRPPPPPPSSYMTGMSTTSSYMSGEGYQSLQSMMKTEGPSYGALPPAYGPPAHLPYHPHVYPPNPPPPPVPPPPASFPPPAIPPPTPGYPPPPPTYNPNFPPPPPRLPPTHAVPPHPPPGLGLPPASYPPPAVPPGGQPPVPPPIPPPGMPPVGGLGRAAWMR
# assay: TR-FRET Lanthascreen Eu Kinase Binding assay
# run.parameters: classifies curves by quality of fit, efficacy and number of asymptotes
Structures can show the parent of a compound that is named as a salt.
recorded.metric: Curve Class
Form: value (number only, do not type unit).

molecule	reported
O=C(O)c1ccc(-c2c[nH]c3ncc(-c4ccccc4)cc23)cc1C1CCCC1	-1.2

Query: Given the molecule NC(=O)c1ccccc1Nc1ccnc(Nc2cccc(O)c2)n1 , what is its reported Curve Class?
Result: -1.1

Query: Given the molecule COc1ccc(-c2cc3nccn3c(Nc3ncccc3C(N)=O)n2)cc1OC [BAY 61-3606 (dihydrochloride)] , what is its reported Curve Class?
Result: -1.1

Query: Given the molecule CN[C@@H]1C[C@H]2O[C@@](C)([C@@H]1OC)n1c3ccccc3c3c4c(c5c6ccccc6n2c5c31)C(=O)N[C@H]4O , what is its reported Curve Class?
Result: -1.1

Query: Given the molecule Cc1cc(CN2CCN(c3c(Br)cnc4[nH]c(-c5ccc(N6CCN(C)CC6)cc5)nc34)CC2)no1 , what is its reported Curve Class?
Result: -1.2

Query: Given the molecule CC(=O)c1cnc2ccc(-c3cc(Cl)c(O)c(Cl)c3)nc2c1N[C@H]1CC[C@H](CN(C)C)CC1 , what is its reported Curve Class?
Result: -1.1

Query: Given the molecule Cc1n[nH]c2ccc(-c3cncc(OC[C@@H](N)Cc4c[nH]c5ccccc45)c3)cc12 , what is its reported Curve Class?
Result: -1.1

Query: Given the molecule Oc1ccc(-c2ccc(-c3cc(Nc4cccc(CNC5CC5)c4)[nH]n3)cc2)c(O)c1 , what is its reported Curve Class?
Result: -1.1

Query: Given the molecule O=C(NCCCNc1nc(Nc2cccc(NC(=O)N3CCCC3)c2)ncc1I)c1cccs1 [BX-795 hydrochloride] , what is its reported Curve Class?
Result: -1.1

Query: Given the molecule CC[C@@](C)(Nc1ccnc(-c2c[nH]c3ncccc23)n1)C(=O)NCC(F)(F)F , what is its reported Curve Class?
Result: -1.1

Query: Given the molecule NS(=O)(=O)c1ccc(NN=C2C(=O)Nc3ccc(Br)cc32)cc1 , what is its reported Curve Class?
Result: -1.2
